Tested on: IGR37 cells (parental)
TEST: Kinase inhibitor library screening, PrestoBlue cell viability, 1 or 10 μM, 72 h
ASSAY_CONDITIONS: IGR37 Parental; 1μΜ; 72 h; in %
Method: After 72 h of treatment, cell viability was assessed using the PrestoBlue Cell Viability Reagent (ThermoFisher Scientific). Measurements were performed with the CLARIOstar Monochromator microplate reader (BMG Labtech). Kinase inhibitor library screening. […] Drugs were added at 2 different concentrations, 1 and 10 μM, for 72 h and cell viability was assessed using the PrestoBlue Cell Viability assay. […] Each cell line was analyzed at least in duplicate. […]
MEASUREMENT_LABEL: Cell viability in kinase inhibitor library screening, IGR37 Parental, 1μΜ
The reply should be a number, written without any unit.

>>> number("O=C1NC(=O)/C(=C/c2ccc(-c3ccc(F)cc3O)o2)S1")
103.0
>>> number("CCn1c(=O)c(-c2cc[nH]n2)cc2c(C)nc(N)nc21")
100.4

Moving on to another molecule below.
Just so you know, measured Cell viability in kinase inhibitor library screening, IGR37 Parental, 1μΜ for CNC(=O)Nc1ccc(-c2nc(N3CC4CCC(C3)O4)c3cnn(C4CCC5(CC4)OCCO5)c3n2)cc1 came out at 27.6

----------
Parameter: cell viability, 501Mel Parental, 10μΜ. Scope: all listed entries.
Test system: 501Mel cells (parental)
TEST: Kinase inhibitor library screening, PrestoBlue cell viability, 1 or 10 μM, 72 h
ASSAY_CONDITIONS: 501Mel Parental; 10μΜ; 72 h; in %
Experimental: After 72 h of treatment, cell viability was assessed using the PrestoBlue Cell Viability Reagent (ThermoFisher Scientific). Measurements were performed with the CLARIOstar Monochromator microplate reader (BMG Labtech). Kinase inhibitor library screening. […] Drugs were added at 2 different concentrations, 1 and 10 μM, for 72 h and cell viability was assessed using the PrestoBlue Cell Viability assay. […] Each cell line was analyzed at least in duplicate. […]
The reply should be a number, written without any unit.

Known results for compounds:
>>> number("CC(O)C(=O)O.CC(O)C(=O)O.CN1CCN(c2ccc3nc(-c4c(N)c5c(F)cccc5[nH]c4=O)[nH]c3c2)CC1")
0.756
>>> number("CCC[C@H](NC(=O)/C(C#N)=C/c1cccc(Br)n1)c1ccccc1 [WP1130, reference compound]")
0.6

Just so you know, measured cell viability, 501Mel Parental, 10μΜ for CCN1CCN(Cc2ccc(-c3cc4c(N[C@H](C)c5ccccc5)ncnc4[nH]3)cc2)CC1 [AEE788 (NVP-AEE788)] came out at 1.2

Just so you know, measured cell viability, 501Mel Parental, 10μΜ for O=C1NC(=O)C(c2ccccc2[N+](=O)[O-])=C1Nc1ccc(O)c(Cl)c1 [SB 415286] came out at 76.0

Just so you know, measured cell viability, 501Mel Parental, 10μΜ for C=CC(=O)Nc1cccc(Sc2nc(Nc3ccc(N4CCN(C)CC4)cc3)ncc2Cl)c1 [WZ8040] came out at -0.212

Just so you know, measured cell viability, 501Mel Parental, 10μΜ for CCOc1cc2ncc(C#N)c(Nc3ccc(OCc4ccccn4)c(Cl)c3)c2cc1NC(=O)/C=C/CN(C)C [Neratinib (HKI-272)] came out at 54.8

Just so you know, measured cell viability, 501Mel Parental, 10μΜ for CN1CCN(c2cccc(Nc3nc4c(-c5ccc(S(C)(=O)=O)cc5)cccn4n3)c2)CC1 [CEP33779] came out at 91.1
